# system-tested: T1, human RSPO3 (human, UniProt Q9BXY4 22-272)
# T1 construct: Recombinant human RSPO3 protein (Genentech); also called huRSPO3; hRSPO3
# T1 sequence: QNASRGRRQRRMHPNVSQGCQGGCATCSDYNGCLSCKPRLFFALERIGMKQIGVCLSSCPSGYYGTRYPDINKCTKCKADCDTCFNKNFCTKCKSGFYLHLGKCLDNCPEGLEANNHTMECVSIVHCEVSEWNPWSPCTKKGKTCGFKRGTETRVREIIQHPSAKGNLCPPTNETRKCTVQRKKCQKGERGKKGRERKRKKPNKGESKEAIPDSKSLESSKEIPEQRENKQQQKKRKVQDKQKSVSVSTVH
# assay-method-text: SPR (BIAcore T200), RSPO3 immobilized, antibody injected, 25 C, 1:1 Langmuir
Let's look at some binders and their measured koff.
# value in s⁻¹; strip the unit string

{"binder": "hu15F3.L4H2 (antibody, V domains shown, CDR graft only (L4, H2); also called humanized 15F3) VH: EVQLVESGGGVVQPGRSLRLSCAASGFTFSDYDMAWVRQAPGKGLEWVATIIYDGSRAYFGDSVRGRFTISRDNSKNTLYLQMNSLRAEDTAVYYCTAHDRSFDYWGQGTMVTVSS VL: DIQMTQSPSSLSASVGDRVTITCLVSEDISNDFVWYQQKPGKAPKLLIYAASRLQDGVPSRFSGSGSGTDFTLTISSLQPEDFATYYCQQSYKYPPTFGQGTKLEIK", "koff [s⁻¹]": 0.000164}

// below: koff requested for another binder
Lookup: Let me know recorded koff for chimeric 11C10 (antibody, V domains shown, Chimeric counterpart with the rat 11C10 variable domains) VH: EVQLVESGGGLVQPGRSLKLSCAASGFTFSDYDMAWVRQAPKKGLEWVATIIYDGSRTYYRDSVKGRFTISRANAKSTLYLQMDSLRSEDTATYYCATHDKTFDYWGQGVMVTVSS VL: DIQMTQSPASLSASLGETVTIECRASEDIYSDLAWYQQKPGNSPQLLIYDVNSLIHGVPSRFSGSGSGTQFSLKINNLQSEDVASYFCQQYDNYPNTFGAGTKLELK , thanks.
Found: 0.00113
